Molecular target: T1, human angiopoietin-2 protein (human, UniProt O15123 19-496)
T1 construct: also called Ang-2; Ang2
T1 sequence (looked up): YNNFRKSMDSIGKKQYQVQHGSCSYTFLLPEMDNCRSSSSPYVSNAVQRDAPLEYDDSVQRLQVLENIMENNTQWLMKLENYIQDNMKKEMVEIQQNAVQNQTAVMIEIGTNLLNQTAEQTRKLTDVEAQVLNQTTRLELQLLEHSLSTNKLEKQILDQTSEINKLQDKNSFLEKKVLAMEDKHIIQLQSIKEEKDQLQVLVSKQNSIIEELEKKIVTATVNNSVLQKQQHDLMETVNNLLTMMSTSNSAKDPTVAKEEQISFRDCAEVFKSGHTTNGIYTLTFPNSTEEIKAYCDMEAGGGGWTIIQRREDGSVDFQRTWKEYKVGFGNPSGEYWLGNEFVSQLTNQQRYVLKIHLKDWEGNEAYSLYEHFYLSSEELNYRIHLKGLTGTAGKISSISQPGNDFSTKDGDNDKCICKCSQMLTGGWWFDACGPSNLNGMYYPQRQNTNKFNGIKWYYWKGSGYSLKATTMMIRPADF
Experiment: competitive ELISA: Tie-2-Fc binding to coated Ang-2; T
Where no end group is shown, it is not given here. 0P linker = not defined here
measured_parameter: pIC50
// scale note: pIC50 = -log10(conc_M); give the bare number

QXYQXLDELDKTLYDQFMLQQG (N-terminal acyl cap; C-terminal amino cap; Kac 2; HP 5; 0P linker on K11, also called 4035 T) [Compound 4035, peptide plus linker (T)]
6.92

Record summary for QHYQPLDELDKTLYDQFMLQQG-NH2 (not fully specified (residue 11, N-terminus); printed as QHY QPL DEL DK(0P)T LYD QFM LQQ G; also: N-terminal acyl cap, also called 4060 T) [Compound 4060, peptide plus linker (T)] : reported pIC50 = 6.67

Record summary for QK(Ac)YQPLDEK(0P linker)DETLYDQFMLQQG (reading uncertain; also: N-terminal acyl cap, C-terminal amino cap, printed as Q(Kac)Y QPL DEK(0P) DET LYD QFM LQQ G, also called 4033 T) [Compound 4033, peptide plus linker (T)] : reported pIC50 = 6.43

Record summary for XQXYQPLDELDKTLYDQFMLQQG (DFB at N-terminus; C-terminal amino cap; Kac 2; 0P linker on K11) [Compound 4050, peptide plus linker (T)] : reported pIC50 = 7.48

Record summary for XQXYQPLDELDKTLYDQFMLQQG (PyC at N-terminus; C-terminal amino cap; Kac 2; 0P linker on K11, also called 4051 T) [Compound 4051, peptide plus linker (T)] : reported pIC50 = 7.84

Record summary for QXYQPLDELDKTXYDQFMLQQG (N-terminal acyl cap; C-terminal amino cap; Kac 2; 0P linker on K11; Nva 13, also called 4041 T) [Compound 4041, peptide plus linker (T)] : reported pIC50 = 5.87

Record summary for QXYQPLDELDKTLYDQFMLQQG (not fully specified; N-terminal acyl cap; C-terminal amino cap; Nick 2; 0P linker on K11, also called 4061 T) [Compound 4061, peptide plus linker (T)] : reported pIC50 = 7.08

Record summary for QXYQPLDELDKTLYDQFMLQQG (N-terminal acyl cap; C-terminal amino cap; Kac 2; 4P linker on K11, also called 4024 T) [Compound 4024, peptide plus linker (T)] : reported pIC50 = 6.68

Values from patent US20120321591A1
